Every entry's value here was drawn from patent US9296693B2.

- target under test: UniProtKB P34913
- Sequence (P34913 whole entry): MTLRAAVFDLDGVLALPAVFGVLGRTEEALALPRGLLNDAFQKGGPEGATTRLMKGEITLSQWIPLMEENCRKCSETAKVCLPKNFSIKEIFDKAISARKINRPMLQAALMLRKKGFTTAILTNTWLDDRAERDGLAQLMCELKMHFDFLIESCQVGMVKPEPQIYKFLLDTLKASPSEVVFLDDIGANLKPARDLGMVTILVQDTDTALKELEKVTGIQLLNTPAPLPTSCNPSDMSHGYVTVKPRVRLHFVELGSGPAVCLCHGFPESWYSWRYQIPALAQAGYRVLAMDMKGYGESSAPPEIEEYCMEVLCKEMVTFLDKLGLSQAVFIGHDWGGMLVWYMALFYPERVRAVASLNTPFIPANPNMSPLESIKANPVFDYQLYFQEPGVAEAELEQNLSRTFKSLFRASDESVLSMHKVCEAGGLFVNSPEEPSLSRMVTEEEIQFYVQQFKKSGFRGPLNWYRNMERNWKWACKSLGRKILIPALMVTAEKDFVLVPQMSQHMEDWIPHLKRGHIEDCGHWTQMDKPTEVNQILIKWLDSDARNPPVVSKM
- method: fluorescent based IC50 assay (CMNPC substrate), recombinant human sEH;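 note: enzyme preincubated with inhibitor for 5 min before adding substrate, in 25 mM Bis-Tris/HCl buffer supplemented with 0.1 mg/mL BSA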
- recorded conditions: read-out: IC50 (nM) Human; homogenous recombinant human sEH 1 nM, CMNPC 5 μM, pH 7.0, 30° C., average of three replicates
metric: IC50 (nM)

- item smiles: "CCC(=O)N1CCC(NC(=O)NC23CC4CC(CC(C4)C2)C3)CC1"
  experimental value: 2.8
- item smiles: "CCC(=O)N1CCC(NC(=O)Nc2ccc(Cl)cc2)CC1"
  experimental value: 10
- item smiles: "CCC(=O)N1CCC(NC(=O)Nc2ccc(N3CCOCC3)cc2)CC1"
  experimental value: 2000

1 = CCC(=O)N1CCC(NC(=O)Nc2ccc(F)cc2)CC1
2 = CCS(=O)(=O)N1CCC(NC(=O)Nc2ccc(OC(F)(F)F)cc2)CC1
query: Which of these two has the smaller recorded IC50: 1 or 2 ? Identify your pick by its label.
result: 2
(2: 0.4 nM, 1: 79 nM)

---

- target under test: murine sEH (Mus musculus (Mouse))
- Sequence (P34914 whole entry): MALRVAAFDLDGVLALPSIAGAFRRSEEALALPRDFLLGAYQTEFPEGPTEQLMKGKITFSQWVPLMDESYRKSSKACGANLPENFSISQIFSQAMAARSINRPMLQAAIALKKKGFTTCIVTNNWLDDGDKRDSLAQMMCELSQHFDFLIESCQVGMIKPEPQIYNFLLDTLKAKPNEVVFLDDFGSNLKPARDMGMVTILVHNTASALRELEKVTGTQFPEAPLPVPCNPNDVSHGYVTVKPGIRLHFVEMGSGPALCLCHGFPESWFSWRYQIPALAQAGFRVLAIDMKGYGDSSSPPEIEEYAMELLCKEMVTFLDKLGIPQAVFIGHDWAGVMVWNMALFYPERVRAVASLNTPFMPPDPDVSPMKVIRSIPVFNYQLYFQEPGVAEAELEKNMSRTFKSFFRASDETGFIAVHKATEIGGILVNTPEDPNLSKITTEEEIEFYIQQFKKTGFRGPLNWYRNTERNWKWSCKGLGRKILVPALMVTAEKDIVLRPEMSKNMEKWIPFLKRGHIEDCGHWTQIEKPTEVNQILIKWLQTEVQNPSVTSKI
- method: fluorescent based IC50 assay (CMNPC substrate), recombinant murine sEH
- Assay type: biochemical
- recorded conditions: homogenous recombinant murine sEH 1 nM, CMNPC 5 μM, pH 7.0, 30° C., average of three replicates
metric: IC50 (nM)

Example entries begin here.
- item smiles: "CCC(=O)N1CCC(NC(=O)Nc2ccc(C(=O)O)cc2)CC1"
  IC50 [nM]: 1000
- item smiles: "O=C(Nc1ccc(OC(F)(F)F)cc1)NC1CCN(S(=O)(=O)c2ccccc2)CC1"
  IC50 [nM]: 0.4
- item smiles: "CCC(=O)N1CCC(NC(=O)Nc2ccc3ccccc3c2)CC1"
  IC50 [nM]: 4.2
- item smiles: "O=C(Nc1ccc(OC(F)(F)F)cc1)NC1CCN(C(=O)C(F)(F)F)CC1"
  IC50 [nM]: 0.4
- item smiles: "CCC(=O)N1CCC(NC(=O)Nc2cccc(Cl)c2)CC1"
  IC50 [nM]: 6.6
- item smiles: "CCC(=O)N1CCC(NC(=O)Nc2ccc(Cl)cc2)CC1"
  IC50 [nM]: 23
- item smiles: "CCC(=O)N1CCC(NC(=O)Nc2ccc(Cl)c(Cl)c2)CC1"
  IC50 [nM]: 0.6
- item smiles: "CCC(=O)N1CCC(NC(=O)Nc2ccc(F)cc2)CC1"
  IC50 [nM]: 110
- item smiles: "CC(=O)N1CCN(CC(=O)N2CCC(NC(=O)Nc3ccc(OC(F)(F)F)cc3)CC2)CC1"
  IC50 [nM]: 1.2

A = CCC(=O)N1CCC(NC(=O)Nc2cccc(F)c2)CC1
B = CCC(=O)N1CCC(NC(=O)NC2CCCCC2)CC1
C = CCC(=O)N1CCC(NC(=O)Nc2ccc(C(F)(C(F)(F)F)C(F)(F)F)cc2)CC1
query: Ordering: ascending IC50. Output spec: labels arranged per the requested ranking.
result: C, B, A
(C: 0.7 nM, B: 3.5 nM, A: 20 nM)

---

- target under test: murine sEH (Mus musculus (Mouse))
- method: fluorescent based IC50 assay (CMNPC substrate), recombinant murine sEH
- Assay type: biochemical
- recorded conditions: homogenous recombinant murine sEH 1 nM, CMNPC 5 μM, pH 7.0, 30° C., average of three replicates
metric: IC50 (nM)

- item smiles: "O=C(Nc1ccc(OC(F)(F)F)cc1)NC1CCN(C(=O)c2ccncc2)CC1"
  IC50 (nM): 1.3
- item smiles: "CCC(=O)N1CCC(NC(=O)Nc2ccccc2)CC1"
  IC50 (nM): 49
- item smiles: "CCC(=O)N1CCC(NC(=O)Nc2ccc([N+](=O)[O-])cc2)CC1"
  IC50 (nM): 97
- item smiles: "CCC(=O)N1CCC(NC(=O)Nc2ccc(Oc3ccccc3)cc2)CC1"
  IC50 (nM): 0.4
- item smiles: "O=C(Nc1ccc(OC(F)(F)F)cc1)NC1CCN(C(=O)c2ccc(Cl)nc2)CC1"
  IC50 (nM): 0.7
- item smiles: "Cc1ccc(S(=O)(=O)N2CCC(NC(=O)Nc3ccc(OC(F)(F)F)cc3)CC2)cc1"
  IC50 (nM): 0.4
- item smiles: "CCC(=O)N1CCC(NC(=O)Nc2ccc(OC)cc2)CC1"
  IC50 (nM): 8.7
- item smiles: "CCC(=O)N1CCC(NC(=O)Nc2ccc(C(C)C)cc2)CC1"
  IC50 (nM): 3.3

1 = O=C(Nc1ccc(OC(F)(F)F)cc1)NC1CCN(C(=O)C2CC2)CC1
2 = O=C(Nc1ccc(OC(F)(F)F)cc1)NC1CCN(C(=O)c2cc(O)c(O)c(O)c2)CC1
3 = CCC(=O)N1CCC(NC(=O)Nc2ccc(I)cc2)CC1
4 = O=C(Nc1ccc(OC(F)(F)F)cc1)NC1CCN(C(=O)Cc2ccccn2)CC1
5 = CCC(=O)N1CCC(NC(=O)Nc2cccc(C)c2)CC1
query: Arrange these 5 compounds in increasing order of IC50. To answer, arrange all of the labels according to the requested order.
result: 1, 3, 2, 4, 5

a = CCC(=O)N1CCC(NC(=O)Nc2ccc(Cl)c(C(F)(F)F)c2)CC1
b = CCC(=O)N1CCC(NC(=O)Nc2cc(Cl)cc(Cl)c2)CC1
query: In terms of reported IC50, does a or b have the smaller number? Please respond with the label that marks your chosen entry.
result: b
(b: 1 nM, a: 2.3 nM)
